Entries and their melting point

Illustrative cases are given below, each with its answer.
CCC(=O)C(=Cc1ccccc1)c1cc(C)cs1: 98 to 99 °C
CC(C)c1ccc(C(=O)c2ccc([N+](=O)[O-])cc2)cc1: 95 °C
CCOC(=O)C1[C@@H]2[C@@H](O)[C@@H]3O[C@H](c4ccc(OC)cc4)OC[C@H]3O[C@H]12 (stereo partly specified): 118 to 120 °C
Nc1nc2c(Cl)cc(F)c(-c3ncc(C(F)(F)F)cc3Cl)c2s1: 230 to 235 °C
CC(=O)c1c(O)cccc1OCC(O)COc1cc(C)ccc1C (stereo unspecified): 104 to 106 °C
CCCn1c(C)nc(N2CCc3ccccc3CC2)c([N+](=O)[O-])c1=O: 164 to 170 °C
O=C(O)c1cccc(-c2cc3c(Nc4cccc(Cl)c4)ncnc3[nH]2)c1: > 300 °C
Cc1oc(-c2ccccc2)nc1CCc1nc(COc2ccccc2CC(=O)O)co1: 109 to 110 °C

Quote melting point reported for O=C1CCC(N2Cc3cc(CNC(=O)c4cccc(Cl)c4)ccc3C2=O)C(=O)N1 (stereo unspecified) please.
293 to 295 °C

Quote melting point reported for CC(C)C(=O)NCc1ccc2ccn(C3CCN(CCc4ccc(F)cc4)CC3)c2c1 please.
97 to 98 °C

Quote melting point reported for N#CC1(C2(O)CCCCC2)Cc2cc3occc3cc21 (stereo unspecified) please.
154 to 158 °C

Quote melting point reported for CCc1nc2ccccc2c(=O)n1CCNc1ccc(SC(C)(C)C(=O)O)cc1 please.
124 to 126 °C

Quote melting point reported for Cc1cccc(-c2[nH]c(C(C)C)nc2-c2cccc(-c3ccc(C)[nH]3)c2)n1 please.
128 to 130 °C

Quote melting point reported for COC(=O)c1c(Br)cc(Br)cc1NC(=O)NCc1ccccc1 please.
> 280 °C

Quote melting point reported for O=C(O)CCn1c(=O)n(CCN2CCN(c3ccc(F)cc3)CC2)c(=O)c2cscc21 please.
202 to 203 °C

====

Entries and their melting point

CC1=NC(NC(=O)Nc2cccc(C)c2)C(=O)N(CC(=O)N2CCCCCC2)c2c(C)cccc21 (stereo unspecified): 204 °C
COc1ccc(/C(=C/C=C/C(=O)O)c2cccs2)cc1: 214 to 216 °C
O=C1c2ccccc2C(=O)N1CC(=O)N1c2ccccc2N(Cc2cccc(OCc3ccccc3)c2)C(=O)[C@H]2CCC[C@H]21 (relative stereo): 196 to 198 °C

Quote melting point reported for CC(Cn1ncnn1)n1nnc2cc3c(=O)n(CC(C)(C)O)nnc3cc2c1=O (stereo unspecified) please.
128 to 130 °C

Quote melting point reported for CN1Cc2c(-c3noc(CN4CCCC(C)(C)C4)n3)ncn2-c2ccccc2C1=O please.
167 to 168 °C

Quote melting point reported for N#CC1CCC(c2ccc(N)cc2)CC1 (stereo unspecified) please.
132 to 140 °C

====

Quantity: melting point

Illustrative cases are given below, each with its answer.
CCc1n[nH]c(CC)c1CCCCCOc1ccc(OC)cc1Cl: 80 to 83 °C
O=C(/C(=C\c1ccc(I)cc1)Sc1ccc(Br)cc1)c1ccc(Br)cc1: 128 to 130 °C
Cc1ccc(S(=O)(=O)c2cnc(C)nc2Nc2c(C)cc(C)cc2C)cc1: 202 to 204 °C
O=C1CCOc2ccc([N+](=O)[O-])cc21: 171 to 173 °C
CC(C)(C)OC(=O)NN=Cc1cccc(C#N)c1: 115 to 158 °C

Quote melting point reported for CC(C)C(S)C(=O)NC1(C(=O)NC(Cc2ccc(-c3ccsc3)nc2)C(=O)O)CCCC1 (centres undefined) please.
215 to 217 °C

Quote melting point reported for Cc1c(-c2cc(Nc3cc4n(n3)CCN(C)C4)c(=O)[nH]n2)cccc1N1Cc2ccc(C(C)(C)C)cc2C1=O please.
208 to 210 °C

Quote melting point reported for CC(=O)Oc1ccc2c(c1)Oc1ccccc1C2=C1C2CC3CC(C2)CC1C3 please.
162 to 163 °C

Quote melting point reported for CC1Cc2ccc(N3C(=O)C4=C(CCCC4)C3=O)cc2O1 (centres undefined) please.
114 to 118 °C
